Taken from paper PMC8458281.

biological target: CXCR4 D187E (human, UniProt P61073-1 1-352, D187E); experiment: FACS
Sequence (P61073 whole entry D187E): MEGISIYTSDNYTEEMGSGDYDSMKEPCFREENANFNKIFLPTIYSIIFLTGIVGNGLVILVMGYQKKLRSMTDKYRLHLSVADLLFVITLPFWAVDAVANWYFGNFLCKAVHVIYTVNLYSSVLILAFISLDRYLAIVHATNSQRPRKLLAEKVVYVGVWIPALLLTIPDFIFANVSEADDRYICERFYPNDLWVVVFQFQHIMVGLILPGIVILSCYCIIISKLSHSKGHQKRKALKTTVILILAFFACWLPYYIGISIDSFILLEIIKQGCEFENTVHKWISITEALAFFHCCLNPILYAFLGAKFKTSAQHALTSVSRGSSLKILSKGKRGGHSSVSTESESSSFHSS
Assay Metric: pIC50
Give bare numbers, as −log10 of the molar value.

Binder | Experimental Value
IVRWSKKVPCVS (also called EPI-X4 WSC02; source: synthetic peptide (Fmoc solid-phase synthesis, HPLC-purified)) [WSC02] | 6.31

--- query ---
Looking up ILRWSRKLPCVS (source: synthetic peptide (Fmoc solid-phase synthesis, HPLC-purified)) [EPI-X4 JM#21] , I found its pIC50 recorded as 6.51
